Recorded values, source PubChem BioAssay AID504408.

Measured activation values are reported for all entries that follow.
# test protocol: HSF-1 activators, primary screen, NIH3T3-HGL cells, MG132 stress, luminescence, single point (AID 504408);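 further: 0% = median of the neutral control wells and 100% = twice that signal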
# reported conditions: NIH3T3-HGL HSF-1 luciferase reporter, MG132, 8 h; at 9 µM; stronger effect = higher value; 100% = twice DMSO control signal
Out of some 300,000 compounds screened, about 5,200 (1.7%) were called active. The full list was thinned out, with actives kept by preference.
Your answer should be a plain number; it is taken to be in %.

Solved entries (count: 8):
Query: // lookup activation for `CC1CCN(c2ccc(-c3ccc(NC(=O)c4ccco4)cc3)nn2)CC1`
Response: -39.2

Query: // lookup activation for COc1ccc(CC(=O)OC(C)C(=O)Nc2ccc(S(N)(=O)=O)cc2)cc1 (stereo unspecified)
Response: -0.48

Query: // lookup activation for `CCOc1ccc(/C=C/C(=O)N(CC)CC(=O)NCc2cccs2)cc1OC`
Response: -14

Query: // lookup activation for `O=C(c1ccc(Cl)cc1)c1cnc(Nc2ccccc2)s1`
Response: 34.7

Query: // lookup activation for `CCc1ccc(C(=O)NNC(=O)C2CCN(c3ncnc4sc(C)c(C)c34)CC2)cc1`
Response: -1.58

Query: // lookup activation for Cc1cc(NC(=O)C(C)N2C(=O)c3ccccc3S2(=O)=O)no1 (stereo unspecified)
Response: -3.5

Query: // lookup activation for `CC(/C=N/NC(=O)c1ccncc1)=C\c1ccco1`
Response: 27.6

Query: // lookup activation for `O=C(Nc1ncccc1O)c1ccc(C(=O)c2ccccc2)cc1`
Response: -2.58

---
Query: // lookup activation for CC(NC(=O)c1ccccc1F)c1cccc2ccccc12 (stereo unspecified)
Response: -4.26

Query: // lookup activation for `Cc1ccc(S(=O)(=O)CCC(=O)Nc2nnc(CC(C)C)s2)cc1`
Response: 16.5

Query: // lookup activation for `CS(=O)(=O)c1ccc(Cl)c(NC(=O)Nc2ccccc2)c1`
Response: -2.82

---

# test protocol: HSF-1 activators, primary screen, NIH3T3-HGL cells, MG132 stress, luminescence, single point (AID 504408);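 further: 0% = median of the neutral control wells and 100% = twice that signal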
# reported conditions: NIH3T3-HGL HSF-1 luciferase reporter, MG132, 8 h; at 9 µM; stronger effect = higher value; 100% = twice DMSO control signal
Among all 300,000 compounds or so, about 5,200 (1.7%) were called active. The sample holds actives, similar compounds and a random draw of the others, so the mix is not that of the screen.
attribute measured: activation (%)
Your answer should be a plain number; it is taken to be in %.

Query: // lookup activation for `COc1cccc(N(CC(=O)N2CCc3ccccc3C2)S(C)(=O)=O)c1`
Response: 69.4

Query: // lookup activation for `Cc1ccc(Nc2nc(-c3ccc(O)cc3O)cs2)nc1`
Response: -44.2

---
Query: // lookup activation for `CCSc1nnc(-c2cc3c(s2)-c2ccccc2CC3)o1`
Response: 51.8

Query: // lookup activation for `O=C(Nc1cc2c3c(c1)CC(=O)N3CCC2)c1ccccc1F`
Response: -11.8

Query: // lookup activation for `COc1cc(/C=C(\C#N)c2nc3ccccc3[nH]2)ccc1O`
Response: 20.9

Query: // lookup activation for `CN(c1cccc(NC(=O)c2ccc(CN3CCc4ccccc4C3)cc2)c1)S(C)(=O)=O`
Response: 21.2

Query: // lookup activation for `CCCCn1c(N)c(N(CC)C(=O)c2ccc(N(C)S(=O)(=O)c3ccc(C)cc3)cc2)c(=O)[nH]c1=O`
Response: -9.17

---

# test protocol: HSF-1 activators, primary screen, NIH3T3-HGL cells, MG132 stress, luminescence, single point (AID 504408);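 further: 0% = median of the neutral control wells and 100% = twice that signal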
# reported conditions: NIH3T3-HGL HSF-1 luciferase reporter, MG132, 8 h; at 9 µM; stronger effect = higher value; 100% = twice DMSO control signal
The whole screen tested about 300,000 compounds, of which about 5,200 (1.7%) were called active. The entries come from a sample that favours actives as a whole.
attribute measured: activation

Solved entries (count: 5):
Query: // lookup activation for `CCc1nnc(NC(=O)/C=C/c2ccc(C)o2)s1`
Response: 3.89% (inactive)

Query: // lookup activation for `COc1ccc(N2CCN(C(=O)c3ccc4c(Cl)c5c(nc4c3)CCCC5)CC2)cc1`
Response: -1.04% (inactive)

Query: // lookup activation for `Cc1csc(NC(=O)C2=COCCO2)n1`
Response: 13% (inactive)

Query: // lookup activation for `CC(=O)c1ccc(NC(=O)c2ccc3c(Cl)c4c(nc3c2)CCCC4)cc1`
Response: 105% (active)

Query: // lookup activation for `CC(C)CCNC(=O)c1ccc2c(Cl)c3c(nc2c1)CCC3`
Response: -56.3% (inactive)

Now consider a different compound.
Query: // lookup activation for CC1=NNC(=O)C1Cc1c(Cl)cccc1Cl (stereo unspecified)
Response: 8.87% (inactive)

---

# test protocol: HSF-1 activators, primary screen, NIH3T3-HGL cells, MG132 stress, luminescence, single point (AID 504408);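 further: 0% = median of the neutral control wells and 100% = twice that signal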
# reported conditions: NIH3T3-HGL HSF-1 luciferase reporter, MG132, 8 h; at 9 µM; stronger effect = higher value; 100% = twice DMSO control signal
About 5,200 (1.7%) of roughly 300,000 compounds were called active. The sample holds actives, similar compounds and a random draw of the others, so the mix is not that of the screen.
Measured activation values are reported for all entries that follow.

Solved entries (count: 8):
Query: // lookup activation for `O=c1oc(/C=C/c2ccccc2)nc2ccccc12`
Response: -13.5% (inactive)

Query: // lookup activation for CCOC(=O)C1=C(C)N=C2c3ccccc3C(=O)C2C1c1ccc(Br)cc1 (stereo not given)
Response: -1.71% (inactive)

Query: // lookup activation for COc1ccc(/C=C/C(=O)NC(=S)NN2CCCCC2c2cccnc2)cc1 (stereo not given)
Response: 13.9% (inactive)

Query: // lookup activation for O=C(NC(=S)N1CCCCC1c1cccnc1)c1ccccc1 (stereo not given)
Response: 4.49% (inactive)

Query: // lookup activation for `CN(Cc1c(F)cccc1Cl)C(=O)CNC(=O)c1ccc2c(c1)OCO2`
Response: -4.62% (inactive)

Query: // lookup activation for `COc1ccc(NC(=O)CN(C)C(=O)c2ccc(NC3CC3)c([N+](=O)[O-])c2)cc1`
Response: 5.08% (inactive)

Query: // lookup activation for O=C1CCCC2=C1C(c1ccccc1)n1c(s/c(=C/c3cccc(F)c3)c1=O)=N2 (stereo not given)
Response: -4.55% (inactive)

Query: // lookup activation for `COc1ccc(C(=NN)c2ccc(OC)cc2)cc1`
Response: 29.3% (inactive)

---
Query: // lookup activation for `CCc1nnc(NS(=O)(=O)c2ccc(NC(=O)c3cccc(OC(F)(F)C(F)F)c3)cc2)s1`
Response: -15.3% (inactive)

Query: // lookup activation for Cc1cccc(C2C3=C(CCCC3=O)N=C3c4ccccc4C(=O)C32)c1 (stereo not given)
Response: 78.2% (active)

---

# test protocol: HSF-1 activators, primary screen, NIH3T3-HGL cells, MG132 stress, luminescence, single point (AID 504408);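 further: 0% = median of the neutral control wells and 100% = twice that signal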
# reported conditions: NIH3T3-HGL HSF-1 luciferase reporter, MG132, 8 h; at 9 µM; 100% = twice DMSO control signal
The campaign covered roughly 300,000 compounds. About 5,200 (1.7%) were called active.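 The calls were made as follows: active = mean replicate activation of at least 50% with a set share of replicates each reaching 50%; inconclusive = only one of those two conditions met; inactive = mean below 50% and too few replicates reaching it.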 The sample holds actives, similar compounds and a random draw of the others, so the mix is not that of the screen.
API: response.call in TRUE (active), FALSE (inactive)

// known answers, use as guide
Query: Assay outcome for `Cc1nn(C)c(C)c1NS(=O)(=O)c1ccc(OC(F)(F)F)cc1` : what was it?
Response: FALSE

Query: Assay outcome for CCOc1ccc2nc(C(=O)N3CCCC(C)C3)sc2c1 (stereo not drawn) : what was it?
Response: TRUE

Query: Assay outcome for `CCN(c1cccc(C)c1)S(=O)(=O)c1ccc(-c2coc(C)n2)cc1` : what was it?
Response: FALSE

Query: Assay outcome for `COc1ccc(F)cc1S(=O)(=O)Nc1ccc2c(c1)OCO2` : what was it?
Response: TRUE

Query: Assay outcome for `CCCCCN(C(=O)CCC(=O)OCCOc1ccc(OC)cc1)c1c(N)n(CCCC)c(=O)[nH]c1=O` : what was it?
Response: FALSE

---
Query: Assay outcome for `CCCC(=O)N(CCN1CCOCC1)c1nc2ccc(OCC)cc2s1` : what was it?
Response: FALSE

Query: Assay outcome for C=CCOc1cccc(C2C(C(=O)c3ccc(C)o3)=C(O)C(=O)N2c2nnc(C)s2)c1 (stereo not drawn) : what was it?
Response: FALSE

Query: Assay outcome for COc1ccc(F)cc1S(=O)(=O)NCC(c1ccc2c(c1)OCO2)N1CCN(C)CC1 (stereo not drawn) : what was it?
Response: FALSE

Query: Assay outcome for `CC(=O)c1nn(-c2ccc(C)cc2)cc1C(=O)c1cccc(Br)c1` : what was it?
Response: FALSE

Query: Assay outcome for `O=C(Nc1ccc(F)cc1)c1cc2c(s1)CCCC2` : what was it?
Response: TRUE

Query: Assay outcome for `Cc1ccc2nc(-c3ccc(Br)cc3)cn2c1` : what was it?
Response: FALSE

Query: Assay outcome for CC(OC(=O)CNC(=O)c1ccco1)C(=O)Nc1ccc(Cl)cn1 (stereo not drawn) : what was it?
Response: FALSE

Query: Assay outcome for `O=C(NNC(=O)c1ccc(Cl)cc1Cl)c1cccs1` : what was it?
Response: FALSE

Query: Assay outcome for `N#Cc1ccc(-c2ccc(F)cc2)nc1Sc1ccccc1` : what was it?
Response: FALSE

Query: Assay outcome for `CCOc1ccc2nc(Nc3nc4ccc(NC(C)=O)cc4s3)sc2c1` : what was it?
Response: FALSE

Query: Assay outcome for `N#CC(=C1SC=CS1)c1nc(-c2ccccc2)cs1` : what was it?
Response: FALSE

Query: Assay outcome for `O=C(Nc1ccc2nc3n(c(=O)c2c1)CCCC3)c1ccc(Cl)nc1` : what was it?
Response: FALSE
